- test_target: C-terminal Src kinase (CSK) (Homo sapiens (Human), UniProt P41240)
- Sequence (P41240 whole entry): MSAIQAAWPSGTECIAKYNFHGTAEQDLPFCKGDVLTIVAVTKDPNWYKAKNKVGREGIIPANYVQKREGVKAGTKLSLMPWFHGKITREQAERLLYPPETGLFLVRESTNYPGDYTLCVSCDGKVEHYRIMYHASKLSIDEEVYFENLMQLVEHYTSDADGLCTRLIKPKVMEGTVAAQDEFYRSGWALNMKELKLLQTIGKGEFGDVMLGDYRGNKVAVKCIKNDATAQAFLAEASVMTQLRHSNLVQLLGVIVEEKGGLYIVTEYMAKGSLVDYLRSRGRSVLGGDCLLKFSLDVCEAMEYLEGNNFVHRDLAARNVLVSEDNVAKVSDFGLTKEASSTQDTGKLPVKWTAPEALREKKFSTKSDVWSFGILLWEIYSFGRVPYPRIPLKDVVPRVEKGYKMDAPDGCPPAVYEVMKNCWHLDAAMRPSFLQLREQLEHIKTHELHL
- test_method_notes: Kd affinity for C-terminal Src kinase (selectivity)
- Assay type: binding
quantity_kind: Kd

Please look at this molecule and report its Kd: Cn1cnc2ccc(Nc3c(Cl)ccc(NS(=O)(=O)N4CCCC4)c3F)cc2c1=O [AR-31]
1.21 µM

Please look at this molecule and report its Kd: CCCS(=O)(=O)Nc1ccc(F)c(Oc2ccc3ncn(C)c(=O)c3c2)c1C#N [AR-25]
> 40 µM

Please look at this molecule and report its Kd: CN(C)S(=O)(=O)Nc1ccc(Cl)c(Nc2ccc3ncn(C)c(=O)c3c2)c1F [AR-30]
8.01 µM

Attribution: patent US20240197735A1
